Molecular target: TF (Innovin) (UniProt P13726 33-295, limits assumed)
Test: cell-based or functional assay
Catalogue of % max inhibition of FXa generation readings, one per entry.
Response body: numeric value in %, unit text excluded.

These recorded examples may help you get a feel for the data.
Record anti-TF HuMab 111 (antibody, V domains shown, Human monoclonal antibody from HuMab mice) VH: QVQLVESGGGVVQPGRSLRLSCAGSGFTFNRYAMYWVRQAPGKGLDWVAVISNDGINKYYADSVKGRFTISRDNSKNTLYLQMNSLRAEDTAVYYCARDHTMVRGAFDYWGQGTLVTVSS VL: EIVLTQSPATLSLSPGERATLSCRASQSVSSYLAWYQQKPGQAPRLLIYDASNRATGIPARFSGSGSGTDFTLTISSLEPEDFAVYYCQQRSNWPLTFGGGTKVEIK . Reported % max inhibition of FXa generation: 7

Record anti-TF HuMab 109 (antibody, V domains shown, Human monoclonal antibody from HuMab mice) VH: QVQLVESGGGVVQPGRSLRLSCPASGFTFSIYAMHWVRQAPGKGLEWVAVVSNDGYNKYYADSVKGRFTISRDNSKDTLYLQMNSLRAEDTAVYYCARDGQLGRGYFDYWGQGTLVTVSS VL: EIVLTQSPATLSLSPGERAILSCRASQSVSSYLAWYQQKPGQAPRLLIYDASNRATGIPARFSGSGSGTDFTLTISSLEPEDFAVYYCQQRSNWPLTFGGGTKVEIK . Reported % max inhibition of FXa generation: 18

Kindly review the next binder as well.
Record anti-TF HuMab 044 (antibody, V domains shown, Human monoclonal antibody from HuMab mice) VH: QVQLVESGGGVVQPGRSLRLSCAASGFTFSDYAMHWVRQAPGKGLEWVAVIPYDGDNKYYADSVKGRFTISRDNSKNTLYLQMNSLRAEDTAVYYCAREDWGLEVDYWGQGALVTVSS VL: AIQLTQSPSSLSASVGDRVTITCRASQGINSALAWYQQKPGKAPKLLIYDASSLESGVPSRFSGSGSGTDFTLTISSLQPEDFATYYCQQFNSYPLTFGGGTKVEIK . Reported % max inhibition of FXa generation: 3
